TESTED_SYSTEM: Epidermal growth factor receptor [T790M,L858R] (Homo sapiens, UniProt P00533, L858R/T790M)
Sequence (P00533 25-1210 T790M/L858R limits assumed): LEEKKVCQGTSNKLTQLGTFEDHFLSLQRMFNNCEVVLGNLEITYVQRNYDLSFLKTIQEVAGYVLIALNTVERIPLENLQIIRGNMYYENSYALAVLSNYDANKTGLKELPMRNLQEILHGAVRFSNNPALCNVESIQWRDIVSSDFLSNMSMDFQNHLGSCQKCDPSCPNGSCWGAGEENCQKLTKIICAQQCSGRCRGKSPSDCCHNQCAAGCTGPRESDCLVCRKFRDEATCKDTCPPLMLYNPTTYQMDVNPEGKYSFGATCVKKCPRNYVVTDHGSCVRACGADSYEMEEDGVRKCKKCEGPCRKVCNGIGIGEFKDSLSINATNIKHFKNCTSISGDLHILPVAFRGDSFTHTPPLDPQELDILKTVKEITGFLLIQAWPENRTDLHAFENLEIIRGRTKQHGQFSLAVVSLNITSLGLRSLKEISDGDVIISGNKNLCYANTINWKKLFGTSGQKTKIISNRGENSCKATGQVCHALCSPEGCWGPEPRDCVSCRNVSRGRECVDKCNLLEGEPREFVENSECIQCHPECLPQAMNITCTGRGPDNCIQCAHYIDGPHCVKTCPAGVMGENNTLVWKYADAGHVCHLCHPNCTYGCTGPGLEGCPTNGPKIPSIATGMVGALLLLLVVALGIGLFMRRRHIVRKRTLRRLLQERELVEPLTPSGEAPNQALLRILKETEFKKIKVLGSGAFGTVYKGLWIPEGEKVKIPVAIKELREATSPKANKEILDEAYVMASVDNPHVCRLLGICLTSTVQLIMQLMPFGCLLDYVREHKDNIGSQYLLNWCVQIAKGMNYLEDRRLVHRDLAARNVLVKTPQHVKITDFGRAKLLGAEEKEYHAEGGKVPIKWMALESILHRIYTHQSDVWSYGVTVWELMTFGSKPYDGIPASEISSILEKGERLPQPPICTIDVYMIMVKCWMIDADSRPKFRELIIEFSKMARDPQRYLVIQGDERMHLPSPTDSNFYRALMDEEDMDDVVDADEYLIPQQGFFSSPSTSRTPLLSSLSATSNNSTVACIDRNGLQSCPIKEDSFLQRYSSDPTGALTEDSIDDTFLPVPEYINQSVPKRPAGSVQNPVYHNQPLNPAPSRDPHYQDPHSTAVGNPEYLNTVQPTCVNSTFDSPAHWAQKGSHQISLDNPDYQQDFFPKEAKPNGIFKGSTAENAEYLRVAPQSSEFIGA
EXPERIMENT_NOTES: Potency Assessment EGFR (WT) and EGFR Mutants
For each entry below, report its pIC50 value.
A value of pIC50 is the negative decimal logarithm of a concentration given in moles per litre.

Entry C=CC(=O)Nc1cc(Nc2ncnc(Nc3cc(F)c(F)cc3C(C)(C)O)n2)c(OC)cc1N(C)CCN1CCCCC1 [US11896597, Compound 24] : reported pIC50 = ? 9.00

Again, but for C=CC(=O)Nc1cc(Nc2ncnc(Nc3cnc(C)cc3C(C)(C)O)n2)c(OC)cc1N(C)CCN(C)C [US11896597, Compound 6] 8.08

Again, but for C=CC(=O)Nc1cc(Nc2ncnc(Nc3ccc(C(F)(F)F)cc3C(C)(C)O)n2)c(OC)cc1N(C)CCN(C)C [US11896597, Compound 13] 8.96

Again, but for C=CC(=O)Nc1cc(Nc2ncnc(Nc3ccccc3C3(O)COC3)n2)c(OC)cc1N(C)CCN(C)C [US11896597, Compound 10] 8.59

Again, but for C=CC(=O)Nc1cc(Nc2ncnc(Nc3ccc(C)nc3C(C)(C)O)n2)c(OC)cc1N(C)CCN(C)C [US11896597, Compound 7] 8.77

Again, but for C=CC(=O)Nc1cc(Nc2nccc(Nc3cc(Cl)c(F)cc3C(C)(C)O)n2)c(OC)cc1N(C)C[C@H]1C[C@H](C)CN1C [US11896597, Compound 90] 8.85

---

TESTED_SYSTEM: UniProtKB P00533
EXPERIMENT_NOTES: Potency Assessment EGFR (WT) and EGFR Mutants
For each entry below, report its pIC50 value.
A value of pIC50 is the negative decimal logarithm of a concentration given in moles per litre.

Entry C=CC(=O)Nc1cc(Nc2ncnc(Nc3ccc(C)nc3C(C)(C)O)n2)c(OC)cc1N(C)CCN(C)C [US11896597, Compound 7] : reported pIC50 = ? 7.06

Again, but for C=CC(=O)Nc1cc(Nc2ncnc(Nc3ccccc3C3(O)COC3)n2)c(OC)cc1N(C)CCN(C)C [US11896597, Compound 10] 7.20

Again, but for C=CC(=O)Nc1cc(Nc2ncnc(Nc3ccc(C(F)(F)F)cc3C(C)(C)O)n2)c(OC)cc1N(C)CCN(C)C [US11896597, Compound 13] 7.69

Again, but for C=CC(=O)Nc1cc(Nc2ncnc(Nc3cnc(C)cc3C(C)(C)O)n2)c(OC)cc1N(C)CCN(C)C [US11896597, Compound 6] 6.99

Again, but for C=CC(=O)Nc1cc(Nc2ncnc(Nc3cc(F)c(F)cc3C(C)(C)O)n2)c(OC)cc1N(C)CCN1CCCCC1 [US11896597, Compound 24] 6.98

Again, but for C=CC(=O)Nc1cc(Nc2nccc(Nc3cc(Cl)c(F)cc3C(C)(C)O)n2)c(OC)cc1N(C)C[C@H]1C[C@H](C)CN1C [US11896597, Compound 90] 6.45
